tested on: SNB-78; test: NCI tumour cell line growth inhibition, 48 h
Active and inactive are the calls of the source. No stated cut-off is given here; in the data, active = GI50 up to about 1.1 µM and inactive = higher.
measured_parameter: GI50

Input line: // GI50 lookup, key: CC(C)(C)C1CC[C@H]2c3c([nH]c4ccccc34)[C@H]3C(=O)N(c4ccc(F)cc4)C(=O)[C@H]3[C@H]2C1 (stereo not given in full)
Output line: 18.4 µM (inactive)

Input line: // GI50 lookup, key: S=C1OC2C3C4CC5C3C(O1)C1C5C4C21 (stereo not given)
Output line: > 100 µM (inactive)

Input line: // GI50 lookup, key: O=P1(c2ccccc2)Nc2ccccc2SSc2ccccc2N1
Output line: 24.2 µM (inactive)

Input line: // GI50 lookup, key: NC1=C(C(=O)O)C(=O)C(Nc2c(O)cccc2C(=O)O)=CC1=O
Output line: > 100 µM (inactive)

Input line: // GI50 lookup, key: C/C(CCn1[nH]c(=O)ccc1=O)=N\N=C(N)N
Output line: > 100 µM (inactive)

Input line: // GI50 lookup, key: CCNC(=O)c1ccc(C)c(/N=N/N(C)C)c1
Output line: > 100 µM (inactive)

Input line: // GI50 lookup, key: Nc1nc(N)c(-c2ccccc2)c(C(=O)Nc2ccccc2)n1
Output line: > 100 µM (inactive)

Input line: // GI50 lookup, key: Clc1ccc2c(c1)[nH]c1c2nc2ccccn21
Output line: 23.6 µM (inactive)

Input line: // GI50 lookup, key: CCOC(=O)c1sc2c(sc(=O)n2-c2ccccc2)c1O
Output line: > 100 µM (inactive)

Input line: // GI50 lookup, key: CN(C)CCNC(=O)c1cc(Cl)cc2ccc(-c3ccccc3)nc12
Output line: 8.13 µM (inactive)

====

tested on: K562; test: NCI tumour cell line growth inhibition, 48 h
Calls of active or inactive are those of the source. Rule as the data show it: active = GI50 up to about 1.1 µM and inactive = higher.
measured_parameter: GI50

Input line: // GI50 lookup, key: COc1ccc(NC(=S)NC(=O)c2ccc3c(c2)Sc2ccccc2O3)c([N+](=O)[O-])c1
Output line: 64.1 µM (inactive)

Input line: // GI50 lookup, key: CN(C)CCNC(=O)c1cccc2c1Oc1c(cccc1[N+](=O)[O-])O2
Output line: 1.45 µM (inactive)

Input line: // GI50 lookup, key: O=C1CC2CCC(C1)[S+]2[O-] (stereo not drawn)
Output line: > 100 µM (inactive)

====

tested on: SF-539; experiment: NCI tumour cell line growth inhibition, 48 h
Activity calls are given as the source filed them. Rule as the data show it: active = GI50 up to about 1.1 µM and inactive = higher.
Give measured GI50 for each item. Keep answers brief.

Input line: Record lookup: for SF-539, what GI50 belongs to CCOC(=O)/C(C#N)=C/c1ccc(SCc2ccco2)c([N+](=O)[O-])c1 ?
Output line: 56.8 µM (inactive)

Input line: Record lookup: for SF-539, what GI50 belongs to Cc1ccc2c(c1)-c1c(C#N)c(N)nc(-c3ccccc3)c1CCS2(=O)=O ?
Output line: 6.35 µM (inactive)

Input line: Record lookup: for SF-539, what GI50 belongs to N#CC(c1ccccc1)N(CCc1ccccc1)C(=O)c1ccc(C(=O)N(CCc2ccccc2)C(C#N)c2ccccc2)cc1 (configuration not stated) ?
Output line: 19.5 µM (inactive)

Input line: Record lookup: for SF-539, what GI50 belongs to COC(=O)C1=C(C)N2CCOC2(C)C(C(=O)OC)C1c1ccc[nH]1 (configuration not stated) ?
Output line: > 100 µM (inactive)

Input line: Record lookup: for SF-539, what GI50 belongs to COc1cccc(Nc2nc(-c3cccs3)nc3cc(OC)c(OC)cc23)c1 ?
Output line: 20.9 µM (inactive)

Input line: Record lookup: for SF-539, what GI50 belongs to COc1cc(C2SCC(=O)N2c2ccc(-c3ccc(-n4c(-c5ccccc5)nc5ccccc5c4=O)cc3)cc2)cc(OC)c1OC (configuration not stated) ?
Output line: 30.3 µM (inactive)

Input line: Record lookup: for SF-539, what GI50 belongs to c1cnn(CN(Cn2cccn2)Cn2cccn2)c1 ?
Output line: > 100 µM (inactive)

Input line: Record lookup: for SF-539, what GI50 belongs to C/C(=C\COP(=O)(O)OP(=O)(O)O)CCCCCCOCc1ccccc1 ?
Output line: > 100 µM (inactive)

Input line: Record lookup: for SF-539, what GI50 belongs to Cc1cc2c(cc1-c1cc3c(cc1C)C(C(C)C)=C(O)C(=O)/C3=C\Nc1c(C)n(C)n(-c3ccccc3)c1=O)/C(=C/Nc1c(C)n(C)n(-c3ccccc3)c1=O)C(=O)C(O)=C2C(C)C ?
Output line: 48.1 µM (inactive)

Input line: Record lookup: for SF-539, what GI50 belongs to O=C(Nc1cnc(O)nc1O)Oc1ccccc1 ?
Output line: > 100 µM (inactive)

Input line: Record lookup: for SF-539, what GI50 belongs to CC(C)CCCC(C)C1CCC2C3CC([N+](=O)[O-])=C4CC(O)CCC4(C)C3CCC12C (configuration not stated) ?
Output line: 11.5 µM (inactive)

Input line: Record lookup: for SF-539, what GI50 belongs to CN1C(=O)N(C)C2(O)c3ccccc3C(=O)C12O (configuration not stated) ?
Output line: > 100 µM (inactive)

====

system: IGROV-1; test: NCI tumour cell line growth inhibition, 48 h
Calls of active or inactive are those of the source. Rule as the data show it: active = GI50 up to about 1.1 µM and inactive = higher.
Give measured GI50 for each item. Keep answers brief.

Input line: Record lookup: for IGROV-1, what GI50 belongs to OCc1ccc2c(c1)CC1(C2)Cc2cc3c(cc2C1)CCC3 ?
Output line: 7.87 µM (inactive)

Input line: Record lookup: for IGROV-1, what GI50 belongs to Cc1ccc(OCC2OC(n3cnc4c(Cl)nc(Cl)nc43)CC2Oc2ccc(C)cc2)cc1 (stereo unspecified) ?
Output line: 2.04 µM (inactive)

Input line: Record lookup: for IGROV-1, what GI50 belongs to Cc1cc(C)cc(Sc2c([N+](=O)[O-])ncn2C)c1 ?
Output line: 20.8 µM (inactive)

Input line: Record lookup: for IGROV-1, what GI50 belongs to NNC(=O)CCc1ccc2ccc3ccccc3c2c1 ?
Output line: > 100 µM (inactive)

Input line: Record lookup: for IGROV-1, what GI50 belongs to CC1=C(C(=O)Nc2ccccc2C)C(c2ccc(N(C)C)cc2)C(C(=O)Nc2ccccc2C)=C(C)N1 ?
Output line: > 100 µM (inactive)

Input line: Record lookup: for IGROV-1, what GI50 belongs to CC(c1ccccc1)n1cncc1C(=O)NN1CCN(C)CC1 (stereo unspecified) ?
Output line: > 10 µM (inactive)

Input line: Record lookup: for IGROV-1, what GI50 belongs to CCN1C(Cl)=NS(=O)(=O)c2ccccc21 ?
Output line: 23.1 µM (inactive)

Input line: Record lookup: for IGROV-1, what GI50 belongs to Cc1ccc(/N=C2N=C(Cl)/C(=C\c3ccccc3)N\2)cc1 ?
Output line: > 100 µM (inactive)

Input line: Record lookup: for IGROV-1, what GI50 belongs to Sc1nnc(NNc2ccccc2)n1Nc1ccccc1 ?
Output line: 19.8 µM (inactive)

Input line: Record lookup: for IGROV-1, what GI50 belongs to Oc1ccc2cc(Br)ccc2c1-c1c(O)ccc2ccc(Br)cc12 ?
Output line: 8.3 µM (inactive)

Input line: Record lookup: for IGROV-1, what GI50 belongs to CN(C)NC1=C([N+](=O)[O-])C=NN(c2ccccc2)C1 ?
Output line: 2.19 µM (inactive)

Input line: Record lookup: for IGROV-1, what GI50 belongs to c1ccc2c3nnc(c2c1)SCCSCCCSCCS3 ?
Output line: 34.4 µM (inactive)

Input line: Record lookup: for IGROV-1, what GI50 belongs to CCC(=O)Oc1ccc2c(c1)c(=O)c1c(NCCCN(C)C)ccc3nnn2c31 ?
Output line: 0.0914 µM (active)

Input line: Record lookup: for IGROV-1, what GI50 belongs to CCOC(=O)CCC(C(=O)OCC)n1nnc2cc(Nc3c(C)[n+]([O-])c4cc(F)c(OCC)cc4[n+]3[O-])ccc21 (stereo unspecified) ?
Output line: > 100 µM (inactive)

Input line: Record lookup: for IGROV-1, what GI50 belongs to CC1(c2ccccc2)CC12C(=O)NC(=O)NC2=O (stereo unspecified) ?
Output line: > 100 µM (inactive)

Input line: Record lookup: for IGROV-1, what GI50 belongs to c1ccc(COC[C@H]2O[C@@H](c3ccccc3)C[C@@H](OCc3ccccc3)C2OCc2ccccc2)cc1 (stereo partly specified) ?
Output line: > 10 µM (inactive)

====

tested on: SW-620; assay: NCI tumour cell line growth inhibition, 48 h
The source made the active and inactive calls. Cut-off read from the data, not from the text of the source: active = GI50 up to about 1.1 µM and inactive = higher.
Valid outcomes are listed here; reply with one: active, inactive

Input line: Check the results log: what was the call for Cc1cc(C)n2c(nc3ccccc32)c1C#N ?
Output line: inactive

Input line: Check the results log: what was the call for CC(C)(C)[Si](C)(C)OCC1OC(n2cnc3c(N)ncnc32)CC1OS(C)(=O)=O (configuration not stated) ?
Output line: inactive

Input line: Check the results log: what was the call for COc1ccc(Cc2c(-c3ccc(C)cc3)n[nH]c(=O)c2C2C(=O)N(c3ccccc3)N=C2c2ccccc2)cc1 (configuration not stated) ?
Output line: inactive

Input line: Check the results log: what was the call for N#Cc1c(N)c2c(c(-c3ccccc3)c1-c1ccccc1)C(=O)N(Nc1ccccc1)C2=O ?
Output line: inactive

Input line: Check the results log: what was the call for Oc1ccc(NCn2c(=S)sc3ccccc32)cc1 ?
Output line: inactive

Input line: Check the results log: what was the call for COc1ccc(/C=C/C(=O)c2sc(-n3nc(-c4ccccc4)cc3-c3ccccc3)nc2C)cc1 ?
Output line: inactive

Input line: Check the results log: what was the call for Cc1ccc2c(c1)-c1c(C#N)c(N)nc(-c3ccccc3)c1CCS2(=O)=O ?
Output line: inactive

Input line: Check the results log: what was the call for CC(C)=NNc1snnc1C(N)=O ?
Output line: inactive

Input line: Check the results log: what was the call for C1CC2=C(C1)[Se]C(=C1Sc3nsnc3S1)[Se]2 ?
Output line: inactive

Input line: Check the results log: what was the call for NNC(=O)CCc1ccc2ccc3ccccc3c2c1 ?
Output line: inactive

Input line: Check the results log: what was the call for S=C1OC2C3C4CC5C3C(O1)C1C5C4C21 (configuration not stated) ?
Output line: inactive

Input line: Check the results log: what was the call for Nc1nc(SCCc2ccccc2)c2nc[nH]c2n1 ?
Output line: inactive

Input line: Check the results log: what was the call for O=[N+]([O-])c1cc(Cl)cnc1Br ?
Output line: inactive

Input line: Check the results log: what was the call for O=C1OC(c2ccccc2)=N/C1=C\c1ccc(Oc2ccc(Cl)c(Cl)c2)cc1 ?
Output line: inactive

Input line: Check the results log: what was the call for CN1CCC2(CC1)SSC1(CCN(C)CC1)S2 ?
Output line: inactive

Input line: Check the results log: what was the call for Nc1ccc(C(=O)NN2C(=O)C(Cl)C2c2cc(Br)cc(Br)c2O)cc1 (configuration not stated) ?
Output line: inactive

Input line: Check the results log: what was the call for Cc1cc(Cl)ccc1NC(=O)CC/C(CC(=O)C(C)C)=N\NC(=O)C[n+]1ccccc1 ?
Output line: inactive

Input line: Check the results log: what was the call for NCCCNCCCNCCCN ?
Output line: inactive

Input line: Check the results log: what was the call for O=[N+]([O-])c1cccc(-c2csc(N/N=C3\NC/C(=C/c4ccc5c(c4)OCO5)S3)n2)c1 ?
Output line: inactive

Input line: Check the results log: what was the call for Cc1cc(C)cc(Sc2c([N+](=O)[O-])ncn2C)c1 ?
Output line: inactive

Input line: Check the results log: what was the call for COc1cccc(Nc2nc(-c3cccs3)nc3cc(OC)c(OC)cc23)c1 ?
Output line: inactive

Input line: Check the results log: what was the call for CCOC(=O)CCC(C(=O)OCC)n1nnc2cc(Nc3c(C)[n+]([O-])c4cc(F)c(OCC)cc4[n+]3[O-])ccc21 (configuration not stated) ?
Output line: inactive

Input line: Check the results log: what was the call for OCCN(C1=NCCN1)/[N+](=C/c1ccccc1O)[CH-]c1ccccc1O ?
Output line: inactive

Input line: Check the results log: what was the call for CC(=O)OC1(C(C)=O)CC2(c3ccccc3)OC1(c1ccccc1)c1ccccc12 (configuration not stated) ?
Output line: inactive

Input line: Check the results log: what was the call for CCc1cccc(C(C)(C)C)c1NC(=S)N/C=C(/C#N)C(N)=O ?
Output line: inactive

Input line: Check the results log: what was the call for CC(=O)c1c2c(c3ccccc3c1O)O[C@@H]1OCC[C@H]21 ?
Output line: inactive

Input line: Check the results log: what was the call for CCOC(=O)/C(C#N)=C/c1ccc(SCc2ccco2)c([N+](=O)[O-])c1 ?
Output line: inactive

Input line: Check the results log: what was the call for Nc1nc(CCl)nc(Nc2ccccc2)n1 ?
Output line: inactive

Input line: Check the results log: what was the call for C/C(CCn1[nH]c(=O)ccc1=O)=N\N=C(N)N ?
Output line: inactive

Input line: Check the results log: what was the call for COc1cc(C2c3cc4c(cc3[C@H](OCCN(C)C)[C@@H]3COC(=O)C23)OCO4)cc(OC)c1O (some centres not stated) ?
Output line: active

Input line: Check the results log: what was the call for COc1ccc(C[C@@H](C(=O)O[C@H](C)[C@H](NC(=O)[C@@H](CC(C)C)N(C)C(=O)C2CCCN2C(=O)[C@H](C)O)C(=O)N2CCCCNC(=O)[C@@H](C)C(=O)[C@H](C(C)C)OC(=O)C[C@H](O)[C@H]2CC(C)C)N(C)C(C)=O)cc1 (some centres not stated) ?
Output line: inactive

Input line: Check the results log: what was the call for CN[C@@H](Cc1cccc2ccccc12)C(=O)N[C@@H](CC(C)C)B(O)O ?
Output line: active

Input line: Check the results log: what was the call for CCN(CC)CCNc1ccc2ncn3c4cc(OC)c(OC)c(O)c4c(=O)c1c23 ?
Output line: inactive

Input line: Check the results log: what was the call for O=C(c1ccccc1)C(C(=O)c1ccccc1)C1(O)C(=O)c2ccccc2C1=O ?
Output line: inactive

Input line: Check the results log: what was the call for O=C(OC(/C=C/c1ccccc1)P1(=O)N(Cc2ccccc2)[C@@H]2CCCC[C@H]2N1Cc1ccccc1)c1ccccc1 (some centres not stated) ?
Output line: inactive

Input line: Check the results log: what was the call for CC1(c2ccccc2)CC12C(=O)NC(=O)NC2=O (configuration not stated) ?
Output line: inactive

Input line: Check the results log: what was the call for O=S(=O)(SCCCCSS(=O)(=O)c1ccc(Cl)cc1)c1ccc(Cl)cc1 ?
Output line: inactive
